Reference source for all entries: patent US20240116985A1

Target: beta-catenin/TCF4 engagement (Homo sapiens)
Construct: expressed in transfected cells; host or cells: HEK293
Sequence (P35222 whole entry): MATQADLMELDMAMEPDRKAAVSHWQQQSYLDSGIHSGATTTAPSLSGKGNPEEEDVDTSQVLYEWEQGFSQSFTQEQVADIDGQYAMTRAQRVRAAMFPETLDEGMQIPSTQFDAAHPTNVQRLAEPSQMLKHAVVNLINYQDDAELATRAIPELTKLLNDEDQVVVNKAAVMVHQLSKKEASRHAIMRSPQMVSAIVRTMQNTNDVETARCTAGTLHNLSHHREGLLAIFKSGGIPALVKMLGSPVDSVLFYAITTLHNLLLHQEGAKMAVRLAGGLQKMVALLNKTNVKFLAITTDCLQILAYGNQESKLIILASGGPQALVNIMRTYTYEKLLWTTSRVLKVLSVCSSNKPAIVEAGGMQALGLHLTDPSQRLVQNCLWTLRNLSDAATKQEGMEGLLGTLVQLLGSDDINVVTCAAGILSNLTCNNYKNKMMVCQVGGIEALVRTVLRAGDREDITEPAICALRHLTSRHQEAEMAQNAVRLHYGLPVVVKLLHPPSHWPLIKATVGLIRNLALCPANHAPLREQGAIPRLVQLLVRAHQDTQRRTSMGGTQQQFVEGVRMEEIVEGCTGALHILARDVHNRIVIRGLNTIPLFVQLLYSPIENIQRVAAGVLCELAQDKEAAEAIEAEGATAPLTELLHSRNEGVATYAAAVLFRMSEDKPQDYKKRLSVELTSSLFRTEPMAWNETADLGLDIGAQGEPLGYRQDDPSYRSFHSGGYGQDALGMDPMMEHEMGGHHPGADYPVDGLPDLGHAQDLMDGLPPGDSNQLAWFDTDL
Experiment: Nano-BRET target engagement assay (B-cat-Halo & TCF4-Luc in HEK293 cells)
Format: cell-based
Settings: read-out: NanoBRET Abs IC50
ASSAY_METRIC: pIC50
Please report pIC50 as the negative decimal logarithm of the molar concentration, giving only the number.

Memo: CC(=O)N1CCC[C@]12CC=CCCCC1(CCCC=CCCCOC(=O)N3CC[C@@](C(=O)N[C@@H](Cc4ccsc4)C(=O)N[C@@H](Cc4csc5ccccc45)C(=O)N[C@@H](C)C(N)=O)(C3)NC(=O)[C@H](CC(C)C)NC(=O)[C@H](Cc3ccccc3)NC(=O)[C@H](C)NC(=O)[C@H](CCCCNC(C)C)NC(=O)[C@H](Cc3cccc(C(=O)O)c3)NC(=O)[C@H](CC(=O)O)NC1=O)NC(=O)[C@H](CC(C)(C)C)NC(=O)[C@H](CC(=O)O)NC2=O (some centres unmarked) [I-1915] , reported pIC50: 4.69
